Ref: the supplement of paper PMC11061612

# combination Emax per record follows
test system: 8-MG-BA (Glioblastoma); test: combination Emax (second highest fraction inhibited in the dose matrix, 72 h); higher = more inhibition; extreme values may be limits of the assay
Give only the figure.

Which value of combination Emax has been reported for Cc1cc2ncnn2cc1Nc1ncc2c(n1)n(C1CCOCC1)c(=O)n2C [AZD7648] + C[C@@H]1COCCN1C2=NC(=NC(=C2)C3(CC3)[S@](=N)(=O)C)C4=C5C=CNC5=NC=C4 [AZD6738] (first compound max 10 µM, 7x7, partner max 10 µM) in the records?
0.769

I am curious: what combination Emax value has been reported for Cc1c2c(nn1C)CSCc1cc(n(C)n1)CSc1cc(c3ccccc3c1)OCCCc1c(C(=O)O)n(C)c3c-2c(Cl)ccc13 [AZD5991] + C=CCn1c(=O)c2cnc(Nc3ccc(N4CCN(C)CC4)cc3)nc2n1-c1cccc(C(C)(C)O)n1 [AZD1775] (first compound max 1 µM, partner max 1 µM) ?
0.906

----------
test system: PANC-10-05 (Pancreatic Carcinoma); test: Bliss excess, mean over the matrix (fraction); higher = more synergy
Parameter: Bliss excess
Field format: numeric only.

Reference set, count: 2
# Compound, Measurement Target, Bliss excess
records = [
    ("CN(CCO)CC[C@H](CSc1ccccc1)Nc1ccc(S(=O)(=O)NC(=O)c2ccc(N3CCC([C@@H](O)c4ccccc4-c4ccc(Cl)cc4)CC3)cc2)cc1S(=O)(=O)C(F)(F)F [AZD4320] + Nc1ccn([C@@H]2O[C@H](CO)[C@@H](O)C2(F)F)c(=O)n1 [Gemcitabine] (first compound max 1 µM, 7x7, partner max 0.3 µM)", "PANC-10-05 (Pancreatic Carcinoma)", 0.0148),
    ("CC1(C)CCC(CN2CCN(c3ccc(C(=O)NS(=O)(=O)c4ccc(NCC5CCOCC5)c([N+](=O)[O-])c4)c(Oc4cnc5[nH]ccc5c4)c3)CC2)=C(c2ccc(Cl)cc2)C1 [Venetoclax] + C[C@@H](Nc1cc(F)cc(F)c1)c1cc(C(=O)N(C)C)cc2c(=O)cc(N3CCOCC3)oc12 [AZD8186] (first compound max 1 µM, 7x7, partner max 3 µM)", "PANC-10-05 (Pancreatic Carcinoma)", -0.0542),
]

Next item in the queue.
Requested field: Bliss excess. Item: Cn1cnc2c(F)c(Nc3ccc(Br)cc3Cl)c(C(=O)NOCCO)cc21 [Selumetinib] + C=CCn1c(=O)c2cnc(Nc3ccc(N4CCN(C)CC4)cc3)nc2n1-c1cccc(C(C)(C)O)n1 [AZD1775] (first compound max 10 µM, partner max 1 µM)
-0.0898

----------
test system: ECC10 (Gastric Carcinoma); test: Bliss excess, mean over the matrix (fraction); higher = more synergy
Parameter: Bliss excess
Answer as a number with no unit attached.

Past entries and their recorded results:
# Compound, Bliss excess
rows = [
    ("Cc1cc2ncnn2cc1Nc1ncc2c(n1)n(C1CCOCC1)c(=O)n2C [AZD7648] + CCN(CCO)CCCOc1ccc2c(Nc3cc(CC(=O)Nc4cccc(F)c4)[nH]n3)ncnc2c1 [AZD2811] (first compound max 10 µM, 7x7, partner max 1 µM)", -0.047),
    ("CC1(C)CCC(CN2CCN(c3ccc(C(=O)NS(=O)(=O)c4ccc(NCC5CCOCC5)c([N+](=O)[O-])c4)c(Oc4cnc5[nH]ccc5c4)c3)CC2)=C(c2ccc(Cl)cc2)C1 [Venetoclax] + C1CN(CCC1(C(=O)N[C@@H](CCO)C2=CC=C(C=C2)Cl)N)C3=NC=NC4=C3C=CN4 [Capivasertib] (first compound max 1 µM, 7x7, partner max 3 µM)", -0.0202),
]

Then this compound:
Please give the measured Bliss excess for this compound: CCN(CCO)CCCOc1ccc2c(Nc3cc(CC(=O)Nc4cccc(F)c4)[nH]n3)ncnc2c1 [AZD2811] + C[C@@H]1COCCN1C2=NC(=NC(=C2)C3(CC3)[S@](=N)(=O)C)C4=C5C=CNC5=NC=C4 [AZD6738] (first compound max 1 µM, 7x7, partner max 10 µM)
-0.0454

----------
tested on: MDST8 (Colorectal Carcinoma); test: Bliss excess, mean over the matrix (fraction); higher = more synergy
Parameter: Bliss excess
Please give the numeric answer without any surrounding text.

# Compound, Bliss excess
rows = [
    ("Cc1c2c(nn1C)CSCc1cc(n(C)n1)CSc1cc(c3ccccc3c1)OCCCc1c(C(=O)O)n(C)c3c-2c(Cl)ccc13 [AZD5991] + Cn1cnc2c(F)c(Nc3ccc(Br)cc3Cl)c(C(=O)NOCCO)cc21 [Selumetinib] (first compound max 1 µM, 7x7, partner max 3 µM)", -0.0014),
    ("CC1(C)CCC(CN2CCN(c3ccc(C(=O)NS(=O)(=O)c4ccc(NCC5CCOCC5)c([N+](=O)[O-])c4)c(Oc4cnc5[nH]ccc5c4)c3)CC2)=C(c2ccc(Cl)cc2)C1 [Venetoclax] + C=CCn1c(=O)c2cnc(Nc3ccc(N4CCN(C)CC4)cc3)nc2n1-c1cccc(C(C)(C)O)n1 [AZD1775] (first compound max 1 µM, partner max 1 µM)", -0.0489),
    ("CCN(CCO)CCCOc1ccc2c(Nc3cc(CC(=O)Nc4cccc(F)c4)[nH]n3)ncnc2c1 [AZD2811] + C[C@@H]1COCCN1C2=NC(=NC(=C2)C3(CC3)[S@](=N)(=O)C)C4=C5C=CNC5=NC=C4 [AZD6738] (first compound max 1 µM, 7x7, partner max 10 µM)", -0.0174),
]

Given the entry CN(C)CCCOc1ccc(-c2ccc3ncc4c(c3c2)n(C2CCOCC2)c(=O)n4C)cn1 [AZD0156] + C=CCn1c(=O)c2cnc(Nc3ccc(N4CCN(C)CC4)cc3)nc2n1-c1cccc(C(C)(C)O)n1 [AZD1775] (first compound max 1 µM, partner max 1 µM) , report its measured Bliss excess.
-0.0358

I have this compound here, Cn1cnc2c(F)c(Nc3ccc(Br)cc3Cl)c(C(=O)NOCCO)cc21 [Selumetinib] + C[C@@H]1COCCN1C2=NC(=NC(=C2)C3(CC3)[S@](=N)(=O)C)C4=C5C=CNC5=NC=C4 [AZD6738] (first compound max 10 µM, 7x7, partner max 10 µM) , and I need its recorded Bliss excess.
0.042

Entry CCN(CCO)CCCOc1ccc2c(Nc3cc(CC(=O)Nc4cccc(F)c4)[nH]n3)ncnc2c1 [AZD2811] + C=CCn1c(=O)c2cnc(Nc3ccc(N4CCN(C)CC4)cc3)nc2n1-c1cccc(C(C)(C)O)n1 [AZD1775] (first compound max 1 µM, partner max 1 µM) has what Bliss excess?
0.064

Form field: reported Bliss excess of COc1nnc2ccc(N3CCC(c4ccc(OCCN5CCN(C)C(=O)[C@H]5C)cc4)CC3)nn12 [AZD5153] + Cc1c2c(nn1C)CSCc1cc(n(C)n1)CSc1cc(c3ccccc3c1)OCCCc1c(C(=O)O)n(C)c3c-2c(Cl)ccc13 [AZD5991] (first compound max 1 µM, 7x7, partner max 1 µM)
0.0069

Param item = COc1cccc(OCCCN)c1-c1cc(Nc2cnc(C#N)cn2)n[nH]1 [Prexasertib] + CN(C)CCCOc1ccc(-c2ccc3ncc4c(c3c2)n(C2CCOCC2)c(=O)n4C)cn1 [AZD0156] (first compound max 1 µM, 7x7, partner max 1 µM) ; retrieve measured Bliss excess.
-0.0216

# lookup: Bliss excess of NC1(C(=O)N[C@@H](CCO)c2ccc(Cl)cc2)CCN(c2ncnc3[nH]ccc23)CC1 [Capivasertib] + Cn1cnc2c(F)c(Nc3ccc(Br)cc3Cl)c(C(=O)NOCCO)cc21 [Selumetinib] (first compound max 10 µM, 7x7, partner max 10 µM)
0.0211

What measured Bliss excess goes with CN(CCO)CC[C@H](CSc1ccccc1)Nc1ccc(S(=O)(=O)NC(=O)c2ccc(N3CCC([C@@H](O)c4ccccc4-c4ccc(Cl)cc4)CC3)cc2)cc1S(=O)(=O)C(F)(F)F [AZD4320] + CN(C)CCCOc1ccc(-c2ccc3ncc4c(c3c2)n(C2CCOCC2)c(=O)n4C)cn1 [AZD0156] (first compound max 1 µM, 7x7, partner max 1 µM) ?
-0.0419

Report Bliss excess for CN(CCO)CC[C@H](CSc1ccccc1)Nc1ccc(S(=O)(=O)NC(=O)c2ccc(N3CCC([C@@H](O)c4ccccc4-c4ccc(Cl)cc4)CC3)cc2)cc1S(=O)(=O)C(F)(F)F [AZD4320] + Cc1cc2ncnn2cc1Nc1ncc2c(n1)n(C1CCOCC1)c(=O)n2C [AZD7648] (first compound max 1 µM, 7x7, partner max 10 µM) please.
-0.0283

Query: Bliss excess; subject: COc1cccc2c1C(=O)c1c(O)c3c(c(O)c1C2=O)C[C@@](O)(C(=O)CO)C[C@@H]3O[C@H]1C[C@H](N)[C@H](O)[C@H](C)O1 [Doxorubicin] + Cc1cc2ncnn2cc1Nc1ncc2c(n1)n(C1CCOCC1)c(=O)n2C [AZD7648] (first compound max 1 µM, 7x7, partner max 10 µM)
0.0756

Any idea what its Bliss excess is? The compound is COc1cc2c(cc1OCCCCCOc1cc3c(cc1OC)C(=O)N1C=C(C)C[C@H]1C=N3)N=C[C@@H]1CC(C)=CN1C2=O [SG3199] + O=C(c1cc(Cc2n[nH]c(=O)c3ccccc23)ccc1F)N1CCN(C(=O)C2CC2)CC1 [Olaparib] (first compound max 0.001 µM, 7x7, partner max 10 µM)
-0.0151
